Origin of values: paper PMC3410856

- Test system: Influenza A virus A/Aichi/2/68 (H3N2)
- experiment summary: microbe, parasite or virus in culture
- Format: cell-based
- experimental setup: Influenza A virus, H3N2; MDCK cells, MOI 0.05, 48 h, CellTiter-Glo; 95% confidence intervals; read-out: antiviral activity IC50 (reduction of virus induced cytopathic effect)
Measured pIC50, listed per entry.
For clarity, pIC50 is expressed as the negative log10 of concentration in mol/L.

Solved entries (count: 3):
{"molecule": "O=C(O[C@@H]1Cc2c(O)cc(O)cc2O[C@@H]1c1cc(O)c(O)c(O)c1)c1cc(O)c(O)c(O)c1", "pIC50": 5.96}
{"molecule": "O=C(O)/C(O)=C/C(=O)C1(Cc2ccc(Cl)cc2)CCN(CC2CCCCC2)CC1", "pIC50": 4.80}
{"molecule": "O=C(O)/C(O)=C/C(=O)C1(Cc2ccc(Cl)cc2)CCCN(S(=O)(=O)Cc2ccccc2)C1 (stereo not shown)", "pIC50": 4.69}

Lab note: next molecule to report on.
## Task // query pIC50 value for entry O=C(O)/C(O)=C/C(=O)C1(Cc2ccc(Cl)cc2)CCCN(Cc2ccccc2)C1 (stereo not shown)
## Result 4.70

====

- experiment summary: in vitro
- experimental setup: dog
measurement kind: CC50 (µM)
All answers are understood in µM, so give the number only.

{"compound": "O=C(O)/C(O)=C/C(=O)C1(Cc2ccc(Cl)cc2)CCCN(Cc2ccccc2)C1 (centres unmarked) [R05-3]", "CC50 [µM]": 79.8}

## Task // query CC50 value for entry O=C(O[C@@H]1Cc2c(O)cc(O)cc2O[C@@H]1c1cc(O)c(O)c(O)c1)c1cc(O)c(O)c(O)c1 [EGCG]
## Result 54.7

====

- experiment summary: in vitro
- experimental setup: dog
Measured CC50, listed per entry.

Solved entries (count: 2):
{"compound": "O=C(O)/C(O)=C/C(=O)C1(Cc2ccc(Cl)cc2)CCN(CC2CCCCC2)CC1", "measurement kind": "CC50", "meas value": "> 50 µM"}
{"compound": "O=C(O)C(=O)CC(=O)c1ccccc1", "measurement kind": "CC50", "meas value": "> 200 µM"}

## Task // query CC50 value for entry O=C(O)/C(O)=C/C(=O)C1(Cc2ccc(Cl)cc2)CCCN(S(=O)(=O)Cc2ccccc2)C1 (stereo not drawn)
## Result > 100 µM
